target: 5-HT7 (Homo sapiens); construct: purchased Euroscreen/BioSignal Packard Inc; assay: Radioligand binding, 5-HT7 ([3H]LSD); conditions: read-out: Binding affinity (Inhibition rate % at 10 μM) 5HT7
Sequence (P34969 whole entry): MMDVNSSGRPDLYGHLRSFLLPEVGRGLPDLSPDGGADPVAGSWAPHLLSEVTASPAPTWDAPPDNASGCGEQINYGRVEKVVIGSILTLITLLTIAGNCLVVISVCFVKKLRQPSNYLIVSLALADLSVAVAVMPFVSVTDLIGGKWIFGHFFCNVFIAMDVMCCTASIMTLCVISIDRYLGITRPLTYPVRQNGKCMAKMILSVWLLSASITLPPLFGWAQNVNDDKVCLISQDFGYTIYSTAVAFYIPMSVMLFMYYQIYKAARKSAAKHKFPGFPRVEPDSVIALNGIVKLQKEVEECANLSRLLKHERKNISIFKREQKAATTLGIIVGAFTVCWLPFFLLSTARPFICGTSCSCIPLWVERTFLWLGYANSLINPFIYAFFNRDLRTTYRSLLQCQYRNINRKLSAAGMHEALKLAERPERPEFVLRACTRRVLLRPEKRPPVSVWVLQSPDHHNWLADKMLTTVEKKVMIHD
Rule: yes (1) for inhibition at 10 µM not less than 10%, no (0) for anything less.

COMPOUND	ANSWER LABEL
CC1(c2ccc([N+](=O)[O-])cc2)C(=O)Nc2cc(Cl)ccc2C1=O (stereo not shown)	yes (1)
CN1CCN(c2cc(Cl)c3c(c2)NC(=O)C(C)(c2ccc(O)cc2)C3=O)CC1 (stereo not shown)	yes (1)
CCNc1ccc(C2(C)C(=O)Nc3cc(Cl)cc(Cl)c3C2=O)cc1 (stereo not shown)	yes (1)
CC1(c2ccc(Br)cc2Br)C(=O)Nc2cc(Cl)cc(Cl)c2C1=O (stereo not shown)	yes (1)
C[C@H](NC(=O)Oc1cccc(C2(C)C(=O)Nc3cc(Cl)cc(Cl)c3C2=O)c1)c1ccccc1 (stereo partly shown)	yes (1)
COc1ccc(C2(C)C(=O)Nc3ccccc3C2=O)cc1 (stereo not shown)	no (0)
C[C@H](NC(=O)Nc1cccc([C@]2(C)C(=O)Nc3cc(Cl)cc(Cl)c3C2=O)c1)c1ccccc1	yes (1)
CN1CCN(c2ccc3c(c2)NC(=O)C(C)(c2ccc(N)cc2)C3=O)CC1 (stereo not shown)	yes (1)
CC1(c2ccccc2)C(=O)Nc2cc(Cl)c(Cl)cc2C1=O (stereo not shown)	yes (1)
CN1CCN(c2cc(Cl)c3c(c2)NC(=O)C(C)(c2ccc([N+](=O)[O-])cc2)C3=O)CC1 (stereo not shown)	yes (1)
CC1(c2ccccc2)C(=O)Nc2ccccc2C1=O (stereo not shown)	yes (1)
C[C@H](NC(=O)Nc1cccc([C@@]2(C)C(=O)Nc3cc(Cl)cc(Cl)c3C2=O)c1)c1ccccc1	no (0)
COc1cc(C2(C)C(=O)Nc3ccccc3C2=O)ccc1O (stereo not shown)	yes (1)
COc1ccc(C2(C)C(=O)Nc3c(Br)cc(Br)cc3C2=O)cc1N (stereo not shown)	yes (1)
CN1CCN(c2cc(Cl)c3c(c2)NC(=O)C(C)(c2ccc(N)cc2)C3=O)CC1 (stereo not shown)	no (0)
CC1(c2ccc(N)cc2)C(=O)Nc2cc(Cl)ccc2C1=O (stereo not shown)	yes (1)
CC1(c2ccc(N)cc2)C(=O)Nc2cc(Cl)cc(Cl)c2C1=O (stereo not shown)	yes (1)
COc1cc(Cl)c2c(c1)NC(=O)C(C)(c1ccccc1)C2=O (stereo not shown)	no (0)
COc1cc(Br)c2c(c1)NC(=O)C(C)(c1ccccc1)C2=O (stereo not shown)	yes (1)
CC1(c2ccccc2)C(=O)Nc2c(Br)cc(Br)cc2C1=O (stereo not shown)	yes (1)
CC1(c2ccc(O)c(N)c2)C(=O)Nc2c(Br)cc(Br)cc2C1=O (stereo not shown)	no (0)
CC1(c2ccc(O)c([N+](=O)[O-])c2)C(=O)Nc2cc(Cl)cc(Cl)c2C1=O (stereo not shown)	yes (1)
CC1(c2ccccc2)C(=O)Nc2cc(Cl)cc(Cl)c2C1=O (stereo not shown)	yes (1)
CN1CCN(c2ccc3c(c2)NC(=O)C(C)(c2ccc([N+](=O)[O-])cc2)C3=O)CC1 (stereo not shown)	yes (1)
CC1(c2ccc(O)cc2)C(=O)Nc2cc(Cl)cc(Cl)c2C1=O (stereo not shown)	yes (1)
CN(C)c1cc(Cl)c2c(c1)NC(=O)C(C)(c1ccccc1)C2=O (stereo not shown)	yes (1)
CC1(c2ccc(O)cc2)C(=O)Nc2ccccc2C1=O (stereo not shown)	no (0)
CC1(c2ccccc2)C(=O)Nc2cc(Cl)ccc2C1=O (stereo not shown)	no (0)
CC1(c2cccc(OCc3ccccc3)c2)C(=O)Nc2cc(Cl)cc(Cl)c2C1=O (stereo not shown)	yes (1)
CC1(c2ccc(Cl)cc2)C(=O)Nc2cc(Cl)cc(Cl)c2C1=O (stereo not shown)	yes (1)
CC1(c2cccc(O)c2)C(=O)Nc2cc(Cl)cc(Cl)c2C1=O (stereo not shown)	yes (1)
CC1(c2ccc(I)cc2)C(=O)Nc2cc(Cl)cc(Cl)c2C1=O (stereo not shown)	yes (1)
COc1ccc(C2(C)C(=O)Nc3cc(Cl)cc(Cl)c3C2=O)cc1[N+](=O)[O-] (stereo not shown)	no (0)
